Molecular target: antigen on NCI-H187 classic small cell lung carcinoma cells (ATCC Number: CRL-5804) recognised by PTA-2357
Experiment: competition flow cytometry on NCI-H187 cells against mouse PTA-2357; NS0-derived
Recorded Relative IC50 (fold of chimeric PTA-2357), one value per entry.
property: Relative IC50 (fold of chimeric PTA-2357)

binder | measurement
PTA-2357 VH4/VK2 IgG1 antibody (antibody, V domains shown) VH: QVQLVQSGAEVKKPGASVKVSCKGSGYPFTDYTIHWVRQAPGQGLEWIGHISTYSGNTNNNQKFKGRATMTVDKSTSTAYMELRSLRSDDTAVYYCARGDYYGSFYKFEYWGQGTTVTVSS VL: DIKMTQSPSSLSASVGDRVTITCGASENIYGALNWFQRKPGKAPKLLIYGATNLADGMPSRFSGSGSGRDFTLTISSLQPEDFATYFCQNVLSIPYTFGQGTKLEIK | 1.34
PTA-2357 VH3/VK2 IgG1 antibody (antibody, V domains shown) VH: QVQLVQSGAEVKKPGASVKVSCKGSGYPFTDYTIHWVRQAPGQGLEWIGHISTYSGNTNNNQKFKGRATMTVDKSTSTAYMELRSLRSDDTTVYYCARGDYYGSFYKFEYWGQGTTVTVSS VL: DIKMTQSPSSLSASVGDRVTITCGASENIYGALNWFQRKPGKAPKLLIYGATNLADGMPSRFSGSGSGRDFTLTISSLQPEDFATYFCQNVLSIPYTFGQGTKLEIK | 1.06
PTA-2357 VH1/VK2 IgG1 antibody (antibody, V domains shown) VH: QVQLVQSGPELKKPGASVKVSCKGSGYPFTDYTIHWVRQAHGQGLEWIGHISTYSGNTNNNQKFKGRATMTVDKSTSTAYMELRSLRSDDSTVYYCARGDYYGSFYKFEYWGQGTTVTVSS VL: DIKMTQSPSSLSASVGDRVTITCGASENIYGALNWFQRKPGKAPKLLIYGATNLADGMPSRFSGSGSGRDFTLTISSLQPEDFATYFCQNVLSIPYTFGQGTKLEIK | 1.06
PTA-2357 VH2/VK3 IgG1 antibody (antibody, V domains shown) VH: QVQLVQSGAEVKKPGASVKVSCKGSGYPFTDYTIHWVRQAHGQGLEWIGHISTYSGNTNNNQKFKGRATMTVDKSTSTAYMELRSLRSDDSTVYYCARGDYYGSFYKFEYWGQGTTVTVSS VL: DIQMTQSPSSLSASVGDRVTITCGASENIYGALNWFQRKPGKAPKLLIYGATNLADGMPSRFSGSGSGRDFTLTISSLQPEDFATYFCQNVLSIPYTFGQGTKLEIK | 1.23
PTA-2357 VH2/VK2 IgG1 antibody (antibody, V domains shown) VH: QVQLVQSGAEVKKPGASVKVSCKGSGYPFTDYTIHWVRQAHGQGLEWIGHISTYSGNTNNNQKFKGRATMTVDKSTSTAYMELRSLRSDDSTVYYCARGDYYGSFYKFEYWGQGTTVTVSS VL: DIKMTQSPSSLSASVGDRVTITCGASENIYGALNWFQRKPGKAPKLLIYGATNLADGMPSRFSGSGSGRDFTLTISSLQPEDFATYFCQNVLSIPYTFGQGTKLEIK | 1.16
